Entry source: paper PMC4654407

Target: recombinant purified human sEH (Homo sapiens, UniProt P34913)
Sequence (P34913 1-555): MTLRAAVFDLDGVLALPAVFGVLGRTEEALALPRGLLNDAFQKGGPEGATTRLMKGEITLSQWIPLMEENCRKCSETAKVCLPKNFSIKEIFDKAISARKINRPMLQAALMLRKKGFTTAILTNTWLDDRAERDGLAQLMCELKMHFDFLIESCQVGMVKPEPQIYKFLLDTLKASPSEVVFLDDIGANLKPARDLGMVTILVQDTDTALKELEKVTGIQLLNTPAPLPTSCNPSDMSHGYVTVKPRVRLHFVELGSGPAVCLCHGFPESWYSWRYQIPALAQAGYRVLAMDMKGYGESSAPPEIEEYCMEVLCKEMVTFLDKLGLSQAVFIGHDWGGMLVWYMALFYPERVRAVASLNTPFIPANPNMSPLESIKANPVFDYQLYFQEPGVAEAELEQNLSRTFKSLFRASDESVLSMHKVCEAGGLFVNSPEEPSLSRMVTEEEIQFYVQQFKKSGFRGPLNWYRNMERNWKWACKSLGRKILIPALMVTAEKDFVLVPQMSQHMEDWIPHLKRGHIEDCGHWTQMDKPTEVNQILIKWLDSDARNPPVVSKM
Assay: sEH inhibition, kinetic fluorescent assay with CMNPC substrate
Measured attribute: IC50 (nM)
Write the value in nM as a bare number.

Look up IC50 with recombinant purified human sEH (Homo sapiens, UniProt P34913) for this molecule: Cc1cc(CNC(=O)NC23CC4CC(C)(CC(C)(C4)C2)C3)on1 111

Look up IC50 with recombinant purified human sEH (Homo sapiens, UniProt P34913) for this molecule: Cc1ccc(-c2cc(CNC(=O)NC34CC5CC(C)(CC(C)(C5)C3)C4)no2)cc1 28.8

Look up IC50 with recombinant purified human sEH (Homo sapiens, UniProt P34913) for this molecule: Cc1cc(CNC(=O)NCC23CC4CC(CC(C4)C2)C3)on1 9.9

Look up IC50 with recombinant purified human sEH (Homo sapiens, UniProt P34913) for this molecule: COc1ccc(-c2cc(CNC(=O)NC34CC5CC(C)(CC(C)(C5)C3)C4)no2)cc1 18

Look up IC50 with recombinant purified human sEH (Homo sapiens, UniProt P34913) for this molecule: CC12CC3CC(C)(C1)CC(NC(=O)NCc1cc(-c4ccco4)on1)(C3)C2 4.8

Look up IC50 with recombinant purified human sEH (Homo sapiens, UniProt P34913) for this molecule: O=C(NCc1cc(-c2cccc(F)c2)no1)NCC12CC3CC(CC(C3)C1)C2 13.7

Look up IC50 with recombinant purified human sEH (Homo sapiens, UniProt P34913) for this molecule: CC12CC3CC(C)(C1)CC(NC(=O)NCc1cc(-c4cccc(F)c4)no1)(C3)C2 14.2

---

Could you please report measured solubility for the items listed next?
test: Solubility in sodium phosphate buffer; format: physicochemical; conditions: pH 7.4

// solubility lookup, key: Cc1cc(CNC(=O)NCC23CC4CC(CC(C4)C2)C3)on1 450 to 475 µM

// solubility lookup, key: Cc1cc(CNC(=O)NC23CC4CC(C)(CC(C)(C4)C2)C3)on1 200 to 225 µM

// solubility lookup, key: CC12CC3CC(C)(C1)CC(NC(=O)NCc1cc(-c4ccco4)on1)(C3)C2 75 to 100 µM

// solubility lookup, key: CC12CC3CC(C)(C1)CC(NC(=O)NCc1cc(-c4cccc(F)c4)no1)(C3)C2 75 to 100 µM

// solubility lookup, key: O=C(NCc1cc(-c2cccc(F)c2)no1)NCC12CC3CC(CC(C3)C1)C2 75 to 100 µM

// solubility lookup, key: Cc1ccc(-c2cc(CNC(=O)NC34CC5CC(C)(CC(C)(C5)C3)C4)no2)cc1 125 to 150 µM

// solubility lookup, key: CC(C)c1cc(CNC(=O)NCC23CC4CC(CC(C4)C2)C3)on1 125 to 150 µM

// solubility lookup, key: O=C(NCc1cc(-c2ccco2)on1)NCC12CC3CC(CC(C3)C1)C2 75 to 100 µM

// solubility lookup, key: COc1ccc(-c2cc(CNC(=O)NC34CC5CC(C)(CC(C)(C5)C3)C4)no2)cc1 25 to 50 µM

// solubility lookup, key: COc1ccc(-c2cc(CNC(=O)NCC34CC5CC(CC(C5)C3)C4)no2)cc1 100 to 125 µM

// solubility lookup, key: Cc1ccc(-c2cc(CNC(=O)NCC34CC5CC(CC(C5)C3)C4)no2)cc1 75 to 100 µM
